Measured inhibition, listed per entry for reference.
# protocol summary: beta-lactamase reporter inhibitors in CHO cells, artefact control for TLR9-MyD88 binding inhibitor project, cell-based, fluorescence (AID 540251);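 note: counterscreen of TLR9-MyD88 hits on CMV-driven BLA in CHO-K1 cells; 0% = DMSO alone and 100% = clavulanate blocking BLA; higher means less blue over green ratio so more BLA blockade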
# settings: CHO-BLA cells, CCF4 FRET ratio, at 4.98 µM, active compounds read high
The other results are listed elsewhere or left out.
measured metric: inhibition (%)

COc1ccccc1N1N=C(c2cccs2)CC1c1ccccc1 (stereo unspecified)	43.5
O=[N+]([O-])c1ccc(N/N=C/c2ccccc2)cc1	10.7
Nc1cccc2c1C(=O)N(Cc1nnc(-c3ccccc3Br)o1)C2=O	19.9
C[N+](C)(C)CCNC(=O)c1cc[n+](Cc2ccccc2)c(/C=N/O)c1	6.76
COc1ccc(-c2nc3cnccn3c2NC2CCCCC2)cc1-c1cccc(Cl)c1	29.5
Cc1cccc(NC(=O)c2nc(S(=O)(=O)Cc3ccccc3)ncc2Cl)c1	43.2
